target: Aβ oligomers (Homo sapiens); construct: Preformed oligomers were prepared by Aβ1-40 peptide solubilized in borate-buffered saline; purchased American Peptide Co. (Sunnyvale, Calif.); host or cells: chemical synthesis, then cross-linked in house with glutaraldehyde; test: Saturation assay, apparent binding constant for Aβ oligomers; details: saturation assay, Scatchard plot; Aβ oligomers 20 μM, λex=530 nm, emission 580 nm; read-out: apparent binding constant (Kd) for Aβ oligomers
Sequence (P05067 672-711 limits assumed): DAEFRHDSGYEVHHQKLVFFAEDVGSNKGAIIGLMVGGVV
PROPERTY: pKd
In plain terms, pKd is the concentration in mol/L turned into minus its base-10 logarithm.

Return pKd (reported value) for this compound: CCOc1cccc(C=Cc2cc(C)c3n2[B-](F)(F)[N+]2=C(CCC(=O)OCC(Cl)(Cl)Cl)C=CC2=C3)c1O
6.32
